Data provenance: patent US9266930

binders and their reported binding affinity ratio (IC50 of standard peptide / IC50 of test peptide)
Molecular target: T1, HLA-DR7 (DRB1*0701) (human)
T1 chain 1: not shown
T1 chain 2: not shown
A bare number is all that is needed in reply.

{"columns": ["binder", "reading"],
 "data": [
  ["RHPFKIGSSDPADNA (modifications not checked) [… (Pf EXP 107)]", -0.0003],
  ["AGGIAGGLALLACAG (modifications not checked) [… (Pf SSP2 513)]", -0.0003],
  ["LIFFDLFLVNGRDVQ (modifications not checked) [… (Pf SSP2 15)]", 0.047],
  ["VKYLVIVFLIFFDLF (modifications not checked) [… (Pf SSP2 7)]", 0.001],
  ["AGGLALLACAGLAYK (modifications not checked) [… (Pf SSP2 517)]", 0.0009]
]}

Per the records, this binder ( AVPLAMKLIQQLNLN (modifications not checked) [… (Pf SSP2 68)] ) has binding affinity ratio (IC50 of standard peptide / IC50 of test peptide) equal to 0.077

Per the records, this binder ( LIDVHDLISDMIKKE (modifications not checked) [… (Pf EXP 47)] ) has binding affinity ratio (IC50 of standard peptide / IC50 of test peptide) equal to 0.01

Per the records, this binder ( MKILSVFFLALFFII (modifications not checked) [… (Pf EXP 1)] ) has binding affinity ratio (IC50 of standard peptide / IC50 of test peptide) equal to 0.036

Per the records, this binder ( IGPFMKAVCVEVEKT (modifications not checked) [… (Pf SSP2 227)] ) has binding affinity ratio (IC50 of standard peptide / IC50 of test peptide) equal to 0.0019

Per the records, this binder ( VVILTDGIPDSIQDS (modifications not checked) [… (Pf SSP2 157)] ) has binding affinity ratio (IC50 of standard peptide / IC50 of test peptide) equal to -0.0003

Per the records, this binder ( ANQLVVILTDGIPDS (modifications not checked) [… (Pf SSP2 153)] ) has binding affinity ratio (IC50 of standard peptide / IC50 of test peptide) equal to 0.0054

Per the records, this binder ( CVEVEKTASCGVWDE (modifications not checked) [… (Pf SSP2 235)] ) has binding affinity ratio (IC50 of standard peptide / IC50 of test peptide) equal to 0.0095
